Attribution: ChEMBL document CHEMBL1151757

# Test system: Putamen
# PROTOCOL DESCRIPTION: Drug uptake in anesthetized cynomolgus monkey brain putamen after 18.5 mins postinjection
# Type: ADME, organism-based, Macaca fascicularis
# Design: unit not given here
# SETUP CONDITIONS: in vivo
Note to self: Drug uptake under 4 means criterion met, ties and anything higher get criterion not met.

[Q] Drug uptake strictly < 4 for this compound? O=C(OCC[18F])C1C2CCC(CC1c1cccc(/C=C\I)c1)N2 (stereo not given)
[A] criterion met

[Q] Criterion: Drug uptake strictly below 4. Is it met by O=C(OCCC[18F])C1C2CCC(CC1c1cccc(/C=C\Br)c1)N2 (stereo not given) ?
[A] criterion not met

[Q] Say whether its Drug uptake is strictly beneath 4. Entry: O=C(OCC[18F])C1C2CCC(CC1c1ccc(/C=C\I)cc1)N2 (stereo not given)
[A] criterion met

[Q] Please determine if O=C(OCCC[18F])C1C2CCC(CC1c1cccc(/C=C\I)c1)N2 (stereo not given) is below 4 in terms of Drug uptake.
[A] criterion not met

[Q] Dear reviewer, please state whether O=C(OCC[18F])C1C2CCC(CC1c1cccc(/C=C\Br)c1)N2 (stereo not given) has Drug uptake strictly beneath 4.
[A] criterion not met

* * *

# PROTOCOL DESCRIPTION: Ratio of drug uptake in caudate to cerebellum in anesthetized cynomolgus monkey after 135 mins postinjection
# Type: ADME, organism-based, Macaca fascicularis
# SETUP CONDITIONS: in vivo, 2.25 h
ENDPOINT NAME: Ratio
Answers are plain numbers.

[
  {
    "COMPOUND": "O=C(OCC[18F])C1C2CCC(CC1c1cccc(/C=C\\Br)c1)N2 (centres undefined)",
    "Ratio": 1.5
  }
]

Respectfully, I request Ratio for each entry included below.
1. O=C(OCC[18F])C1C2CCC(CC1c1ccc(/C=C\I)cc1)N2 (centres undefined)
2. O=C(OCCC[18F])C1C2CCC(CC1c1cccc(/C=C\I)c1)N2 (centres undefined)

[A]
[1.8, 1.3]

[Q] Return reported Ratio. Input compound: O=C(OCCC[18F])C1C2CCC(CC1c1cccc(/C=C\Br)c1)N2 (centres undefined)
[A] 1.5

* * *

# Tested on: Thalamus
# PROTOCOL DESCRIPTION: Drug uptake in anesthetized cynomolgus monkey brain thalamus after 35 mins postinjection
# Type: ADME, organism-based, Macaca fascicularis
# Design: unit not given here
# SETUP CONDITIONS: in vivo
Kindly state Drug uptake for each of the entries shown.

Some compounds with recorded Drug uptake:
[
  {
    "COMPOUND": "O=C(OCC[18F])C1C2CCC(CC1c1cccc(/C=C\\I)c1)N2 (stereo not given)",
    "RESULT VALUE": 4.2
  },
  {
    "COMPOUND": "O=C(OCCC[18F])C1C2CCC(CC1c1cccc(/C=C\\Br)c1)N2 (stereo not given)",
    "RESULT VALUE": 5.26
  },
  {
    "COMPOUND": "O=C(OCCC[18F])C1C2CCC(CC1c1cccc(/C=C\\I)c1)N2 (stereo not given)",
    "RESULT VALUE": 4.81
  },
  {
    "COMPOUND": "O=C(OCC[18F])C1C2CCC(CC1c1cccc(/C=C\\Br)c1)N2 (stereo not given)",
    "RESULT VALUE": 3.89
  }
]

[Q] Report Drug uptake on Thalamus for this entry: O=C(OCC[18F])C1C2CCC(CC1c1ccc(/C=C\I)cc1)N2 (stereo not given)
[A] 3.31
